This section lists IC50 readings for UniProtKB Q05397.
Sequence (Q05397 whole entry): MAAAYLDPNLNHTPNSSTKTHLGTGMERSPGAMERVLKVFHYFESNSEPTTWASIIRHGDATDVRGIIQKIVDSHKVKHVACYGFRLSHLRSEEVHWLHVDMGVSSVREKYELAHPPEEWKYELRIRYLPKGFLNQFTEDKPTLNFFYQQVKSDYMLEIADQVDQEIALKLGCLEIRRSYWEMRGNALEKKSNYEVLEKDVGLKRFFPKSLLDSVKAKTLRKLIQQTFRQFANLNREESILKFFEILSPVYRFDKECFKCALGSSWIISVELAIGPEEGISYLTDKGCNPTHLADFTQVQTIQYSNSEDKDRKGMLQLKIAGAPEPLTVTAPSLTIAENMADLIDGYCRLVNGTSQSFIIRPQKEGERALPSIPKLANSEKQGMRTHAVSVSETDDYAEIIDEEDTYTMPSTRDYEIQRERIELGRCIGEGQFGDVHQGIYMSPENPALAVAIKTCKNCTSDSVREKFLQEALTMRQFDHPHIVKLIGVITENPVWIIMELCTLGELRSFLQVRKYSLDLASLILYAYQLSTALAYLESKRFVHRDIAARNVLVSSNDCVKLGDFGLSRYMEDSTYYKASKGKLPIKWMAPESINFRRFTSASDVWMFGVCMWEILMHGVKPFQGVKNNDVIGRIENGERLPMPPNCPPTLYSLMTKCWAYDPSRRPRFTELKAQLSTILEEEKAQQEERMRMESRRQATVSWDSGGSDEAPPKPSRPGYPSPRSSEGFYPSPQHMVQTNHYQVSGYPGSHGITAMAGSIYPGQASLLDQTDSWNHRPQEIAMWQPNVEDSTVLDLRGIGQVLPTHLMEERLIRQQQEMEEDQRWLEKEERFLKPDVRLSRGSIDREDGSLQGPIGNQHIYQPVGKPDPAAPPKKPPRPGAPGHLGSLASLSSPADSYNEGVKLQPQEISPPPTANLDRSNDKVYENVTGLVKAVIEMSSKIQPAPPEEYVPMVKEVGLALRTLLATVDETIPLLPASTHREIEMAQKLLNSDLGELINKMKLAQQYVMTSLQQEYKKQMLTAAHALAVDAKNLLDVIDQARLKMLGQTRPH
Numbers only; they are read as nM.

Here is how some compounds turned out for IC50.
1) O=P(OCc1ccccc1)(Oc1ccc2[nH]nc(-c3cc4ccccc4[nH]3)c2c1)c1ccccc1 (centres unmarked) : 8300
2) O=P(Oc1ccc2[nH]nc(/C=C/c3ccccc3)c2c1)(c1ccccc1)c1ccccc1 : 3530

Param item = COP(=O)(Oc1ccc2[nH]nc(-c3cc4ccccc4[nH]3)c2c1)c1ccccc1 (centres unmarked) ; retrieve measured IC50. 740

====

Entries with reported IC50 on human KDR enzyme (Homo sapiens)
Sequence (P35968 786-1356): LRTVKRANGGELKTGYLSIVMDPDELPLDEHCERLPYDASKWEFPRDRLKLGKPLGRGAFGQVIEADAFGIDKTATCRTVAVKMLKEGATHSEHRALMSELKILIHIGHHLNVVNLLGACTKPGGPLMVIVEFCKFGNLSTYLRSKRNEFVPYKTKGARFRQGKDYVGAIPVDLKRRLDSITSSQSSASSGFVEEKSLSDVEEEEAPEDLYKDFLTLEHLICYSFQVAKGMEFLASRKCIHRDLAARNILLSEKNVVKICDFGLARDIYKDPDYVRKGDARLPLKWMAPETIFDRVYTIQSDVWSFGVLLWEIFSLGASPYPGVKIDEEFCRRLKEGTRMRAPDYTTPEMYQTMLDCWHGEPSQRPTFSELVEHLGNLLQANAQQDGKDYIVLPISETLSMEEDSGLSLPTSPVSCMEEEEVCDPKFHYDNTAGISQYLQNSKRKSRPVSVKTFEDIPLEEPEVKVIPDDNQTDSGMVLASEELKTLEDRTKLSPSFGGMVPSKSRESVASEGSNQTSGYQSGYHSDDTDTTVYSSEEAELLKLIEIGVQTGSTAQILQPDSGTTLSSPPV
Please give a number only; it is taken to be in nM.

Example entries and their recorded answers appear below.
1) COP(=O)(OC)c1ccc2[nH]nc(/C=C/c3ccccc3)c2c1 : 2030
2) CP(=O)(Oc1ccc2[nH]nc(-c3cc4cc(OCCN5CCOCC5)ccc4[nH]3)c2c1)c1ccccc1 (stereo not shown) : 141
3) CCOP(=O)(OCC)c1ccc2[nH]nc(/C=C/c3ccccc3)c2c1 : 1660

Which IC50 reading was recorded for the molecule CP(=O)(Oc1ccc2[nH]nc(-c3cc4ccccc4[nH]3)c2c1)c1ccccc1 (stereo not shown) ? 310

Next molecule up: CP(=O)(Oc1ccc2[nH]nc(/C=C/c3ccccc3)c2c1)c1ccccc1 (stereo not shown) 158

Now consider COP(=O)(Oc1ccc2[nH]nc(-c3cc4ccccc4[nH]3)c2c1)c1ccccc1 (stereo not shown) and answer again. 288

Let us now turn to CCOP(=O)(Oc1ccc2[nH]nc(-c3cc4nc(OC)ccc4[nH]3)c2c1)c1ccccc1 (stereo not shown) 442

Item: "O=P(O)(Oc1ccc2[nH]nc(-c3cc4ccccc4[nH]3)c2c1)c1ccccc1" 577

Origin of measurements: patent US7491710B2
